# System: human activated C1s complement component (Homo sapiens (Human), UniProt P09871)
# Sequence (P09871 438-688): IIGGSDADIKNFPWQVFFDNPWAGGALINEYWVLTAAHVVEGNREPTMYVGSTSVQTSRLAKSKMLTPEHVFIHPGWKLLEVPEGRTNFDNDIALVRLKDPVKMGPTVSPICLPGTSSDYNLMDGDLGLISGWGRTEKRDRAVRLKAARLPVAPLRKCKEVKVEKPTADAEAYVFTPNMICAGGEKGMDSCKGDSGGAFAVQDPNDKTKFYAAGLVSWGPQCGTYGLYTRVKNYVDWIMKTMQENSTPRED
# Sequence (P09871 16-437 partner): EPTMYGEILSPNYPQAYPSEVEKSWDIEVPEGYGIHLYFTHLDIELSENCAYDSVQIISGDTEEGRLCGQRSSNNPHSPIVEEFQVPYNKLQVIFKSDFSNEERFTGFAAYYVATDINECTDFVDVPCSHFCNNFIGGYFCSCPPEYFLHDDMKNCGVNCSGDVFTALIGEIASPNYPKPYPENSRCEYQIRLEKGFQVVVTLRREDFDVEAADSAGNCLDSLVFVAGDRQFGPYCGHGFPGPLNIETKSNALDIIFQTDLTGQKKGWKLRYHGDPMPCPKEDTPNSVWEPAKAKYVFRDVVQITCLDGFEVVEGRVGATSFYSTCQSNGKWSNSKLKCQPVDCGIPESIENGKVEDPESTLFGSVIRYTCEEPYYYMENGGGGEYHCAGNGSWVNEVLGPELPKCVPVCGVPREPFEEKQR
# Measurement protocol: Inhibition of human C1s
# Conditions used: S2314 substrate; read-out: h C1s Ki
pKi: −log10 of the molar value.
Outcome measure: pKi

Some molecules with recorded pKi:
{"Mol smiles": "CC(=O)N1CCC(CC[C@@H](NS(=O)(=O)Cc2ccccc2)C(=O)N[C@@H](CCC2CCNCC2)C(=O)NCc2ccc(C(=N)N)cc2)CC1", "pKi": "< 4.70"}
{"Mol smiles": "N=C(N)c1ccc(CNC(=O)[C@H](CCC2CCNCC2)NC(=O)[C@@H](CCCc2ccccc2)NS(=O)(=O)Cc2ccccc2)cc1", "pKi": "< 5.30"}

Now for a further molecule.
Per the record, COC(=O)N1CCC(CC[C@@H](NS(=O)(=O)Cc2ccccc2)C(=O)N[C@@H](CCC2CCNCC2)C(=O)NCc2ccc(C(=N)N)cc2)CC1 has pKi of < 5.00
